This collection of values is drawn from paper PMC4035740.

# targetOrSystem: rat P2X2 WT (Rattus norvegicus)
# Sequence (P49653 1-472): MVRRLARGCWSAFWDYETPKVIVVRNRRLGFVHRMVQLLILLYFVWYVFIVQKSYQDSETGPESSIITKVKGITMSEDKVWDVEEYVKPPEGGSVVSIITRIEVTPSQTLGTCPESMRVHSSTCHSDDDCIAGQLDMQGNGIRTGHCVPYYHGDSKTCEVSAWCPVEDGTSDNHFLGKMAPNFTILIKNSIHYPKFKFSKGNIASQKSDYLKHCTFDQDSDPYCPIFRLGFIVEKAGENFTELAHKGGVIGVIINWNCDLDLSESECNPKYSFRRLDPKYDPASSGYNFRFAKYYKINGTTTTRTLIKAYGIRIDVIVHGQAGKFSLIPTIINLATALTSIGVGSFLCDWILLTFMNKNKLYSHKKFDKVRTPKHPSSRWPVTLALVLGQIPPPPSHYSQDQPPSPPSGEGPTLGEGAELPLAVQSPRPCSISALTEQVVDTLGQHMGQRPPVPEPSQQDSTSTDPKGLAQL
# assay: ATP dose–response, two-electrode voltage clamp in Xenopus oocytes, WT
measuredParameter: EC50 (µM)

{"compound": "Nc1ncnc2c1ncn2[C@@H]1O[C@H](COP(=O)(O)OP(=O)(O)OP(=O)(O)O)[C@@H](O)[C@H]1O [ATP, adenosine triphosphate]", "scaleUnit": "µM", "quantitativeResult": 14.5}

###

# targetOrSystem: rat P2X2 tandem trimer D315A–D315A–WT (Rattus norvegicus, UniProt P49653, D315A)
# Sequence (P49653 1-472 D315A) 1: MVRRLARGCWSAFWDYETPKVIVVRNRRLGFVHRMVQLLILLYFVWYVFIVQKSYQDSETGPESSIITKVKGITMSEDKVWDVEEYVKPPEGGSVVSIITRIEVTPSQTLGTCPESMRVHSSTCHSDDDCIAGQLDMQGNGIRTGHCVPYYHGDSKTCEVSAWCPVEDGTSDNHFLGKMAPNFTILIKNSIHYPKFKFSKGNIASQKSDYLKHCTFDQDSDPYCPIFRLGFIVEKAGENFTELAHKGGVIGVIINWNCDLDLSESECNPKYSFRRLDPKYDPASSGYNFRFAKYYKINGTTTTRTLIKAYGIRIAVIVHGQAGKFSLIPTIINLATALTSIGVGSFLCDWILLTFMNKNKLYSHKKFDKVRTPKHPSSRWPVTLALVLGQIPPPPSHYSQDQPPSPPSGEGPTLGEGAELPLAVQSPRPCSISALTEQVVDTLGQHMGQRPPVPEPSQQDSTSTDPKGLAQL
# Sequence (P49653 1-472 D315A) 2: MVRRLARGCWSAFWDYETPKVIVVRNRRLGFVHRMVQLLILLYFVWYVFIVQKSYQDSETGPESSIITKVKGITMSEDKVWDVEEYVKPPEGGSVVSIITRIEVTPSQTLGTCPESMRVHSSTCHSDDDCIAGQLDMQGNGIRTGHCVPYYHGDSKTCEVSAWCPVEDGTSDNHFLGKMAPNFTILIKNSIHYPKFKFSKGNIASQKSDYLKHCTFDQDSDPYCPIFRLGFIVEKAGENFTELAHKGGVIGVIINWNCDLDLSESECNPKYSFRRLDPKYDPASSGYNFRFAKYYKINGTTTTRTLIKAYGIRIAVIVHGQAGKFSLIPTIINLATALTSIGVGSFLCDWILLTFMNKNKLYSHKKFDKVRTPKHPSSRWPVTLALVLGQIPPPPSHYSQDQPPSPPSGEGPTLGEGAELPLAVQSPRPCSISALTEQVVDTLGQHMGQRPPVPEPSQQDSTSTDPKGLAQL
# Sequence (P49653 1-472): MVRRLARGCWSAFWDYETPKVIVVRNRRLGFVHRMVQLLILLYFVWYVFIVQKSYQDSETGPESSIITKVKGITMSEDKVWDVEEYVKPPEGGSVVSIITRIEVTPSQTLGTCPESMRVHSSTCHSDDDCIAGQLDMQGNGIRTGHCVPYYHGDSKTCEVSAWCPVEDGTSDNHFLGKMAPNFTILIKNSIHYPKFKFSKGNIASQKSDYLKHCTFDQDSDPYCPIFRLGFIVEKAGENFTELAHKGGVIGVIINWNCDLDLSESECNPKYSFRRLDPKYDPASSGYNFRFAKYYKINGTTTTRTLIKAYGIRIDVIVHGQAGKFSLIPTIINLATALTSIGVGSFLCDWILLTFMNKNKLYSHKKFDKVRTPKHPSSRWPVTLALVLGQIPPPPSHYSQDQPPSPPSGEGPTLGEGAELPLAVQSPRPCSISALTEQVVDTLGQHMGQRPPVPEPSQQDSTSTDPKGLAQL
# Assay type: cell-based
# details: EC50 (1), first phase, at −160 mV
pEC50: −log10 of the molar value.
measuredParameter: pEC50

{"compound": "Nc1ncnc2c1ncn2[C@@H]1O[C@H](COP(=O)(O)OP(=O)(O)OP(=O)(O)O)[C@@H](O)[C@H]1O [ATP, adenosine triphosphate]", "targetOrSystem": "rat P2X2 tandem trimer D315A–D315A–WT (Rattus norvegicus, UniProt P49653, D315A)", "quantitativeResult": 5.50}
